biological target: rat Opioid Receptor, Non-selective Binding, Oprm1 (gene 25601); assay: NVS_GPCR_rOpiate_NonSelective: NovaScreen (NVS) G Protein-Coupled Receptor Assay for rat Opioid Receptor, Non-selective Binding (AID 2283318)
Inconclusive results are not listed. The source made the active and inactive calls. How the source made its calls: active means hit-call score of the fitted dose curve at least 0.9, where 1 is the maximum; inconclusive means response in the unintended direction; inactive means score below 0.9.
Please answer using one outcome listed in Y (active), N (inactive)

Solved cases (6 shown):
compound | tgt | label
CCCCCCCC(=O)O | rat Opioid Receptor, Non-selective Binding, Oprm1 (gene 25601) | N
COCC(C)OCC(C)O (stereo not given) | rat Opioid Receptor, Non-selective Binding, Oprm1 (gene 25601) | N
CC(=O)NC1(c2cccc(F)c2)CCN(CC[C@@]2(c3ccc(Cl)c(Cl)c3)CN(c3ccccc3)C(=O)CO2)CC1 | rat Opioid Receptor, Non-selective Binding, Oprm1 (gene 25601) | Y
O=c1c(-c2ccc(O)cc2)coc2cc(O)ccc12 | rat Opioid Receptor, Non-selective Binding, Oprm1 (gene 25601) | N
NC(=O)N(O)[C@@H]1C=C[C@H](Oc2cccc(Oc3ccc(F)cc3)c2)C1 | rat Opioid Receptor, Non-selective Binding, Oprm1 (gene 25601) | N
CCN(CC)CCNc1ccc(CNC=O)c2sc3ccc(OC)cc3c(=O)c12 | rat Opioid Receptor, Non-selective Binding, Oprm1 (gene 25601) | N

Please share the test call associated with `ClC1=C(Cl)C(Cl)(Cl)C(Cl)=C1Cl` .
N

One more compound: `CCCOc1sc(C(=O)N2CCC(c3cc(CN)ccc3F)CC2)c(C)c1Br`
Y

One more compound: `CC[C@H](c1ccc(O)cc1)[C@@H](CC)c1ccc(O)cc1`
Y

One more compound: `c1ccc2c(c1)Cc1ccccc1-2`
N

====

test: BSK_4H_SRB: Viability Assessment in the BioMAP Diversity Plus: 4H Assay (AID 2283027); conditions: primary human endothelial cells (HUVEC);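 further: cells exposed to compound for 24 h before staining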
Active and inactive are the calls of the source. The calls were made as follows: active = hit-call score of the fitted dose curve at least 0.9, where 1 is the maximum; inactive = score below 0.9.
Please answer using one outcome listed in t (active), f (inactive)

compound | label
CCCCCCC(=O)O | f
CCCCC(CC)COC(=O)CCCCC(=O)OCC(CC)CCCC (configuration not stated) | f
NCC(F)(F)C(F)(F)C(F)(F)C(F)(F)C(F)(F)C(F)(F)C(F)(F)F | f

Please share the test call associated with `CCCCCCCCCCCCc1ccccc1S(=O)(=O)O` .
f

====

read-out: Lipoprotein lipase (LPL), LPL (gene 4023); test: LTEA_HepaRG_LPL: Life Technologies and Expression Analysis (LTEA) Assay for Lipoprotein lipase (LPL) using HepaRG (AID 2283515); details: mRNA level, 48 h; actives raise or lower the signal
Activity calls are given as the source filed them. Rule for the calls: active = hit-call score of the fitted dose curve at least 0.9, where 1 is the maximum; inactive = score below 0.9.
Please answer using one outcome listed in active, inactive

Solved cases (3 shown):
chem-smiles | label
CN1CCN(c2ccccc2/C=C2\SCCN(c3ccc(Cl)c(Cl)c3)C2=O)CC1 | active
CCCCCCC(=O)O | inactive
CC(C)CCCCCCOC(=O)CCCCC(=O)OCCCCCCC(C)C | inactive

Please share the test call associated with `OCCC(F)(F)C(F)(F)C(F)(F)C(F)(F)C(F)(F)C(F)(F)F` .
inactive

One more compound: `CCCCCCCCCCCCc1ccccc1S(=O)(=O)O`
active

One more compound: `CC(=O)CC(C)(C)O`
inactive

====

target: human Adrenergic, Beta 1 Receptor (Adrb1), ADRB1 (gene 153) (UniProt P08588); assay: NVS_GPCR_hAdrb1: NovaScreen (NVS) G Protein-Coupled Receptor Assay for human Adrenergic, Beta 1 Receptor (Adrb1) (AID 2283258)
Sequence (P08588 whole entry, looked up): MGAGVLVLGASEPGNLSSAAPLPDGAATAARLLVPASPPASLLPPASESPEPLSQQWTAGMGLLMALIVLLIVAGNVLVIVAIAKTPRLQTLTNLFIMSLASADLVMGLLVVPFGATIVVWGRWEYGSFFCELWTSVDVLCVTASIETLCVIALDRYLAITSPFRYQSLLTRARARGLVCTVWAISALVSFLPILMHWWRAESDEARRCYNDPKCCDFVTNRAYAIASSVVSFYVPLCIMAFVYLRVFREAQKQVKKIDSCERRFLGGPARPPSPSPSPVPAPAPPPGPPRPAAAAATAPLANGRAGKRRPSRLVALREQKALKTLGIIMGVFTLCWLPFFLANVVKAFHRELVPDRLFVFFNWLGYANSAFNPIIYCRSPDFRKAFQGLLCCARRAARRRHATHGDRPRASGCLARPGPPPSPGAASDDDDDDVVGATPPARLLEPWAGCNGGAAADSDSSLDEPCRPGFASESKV
Records with an inconclusive call do not appear. The source made the active and inactive calls. Rule for the calls: active = hit-call score of the fitted dose curve at least 0.9, where 1 is the maximum; inconclusive = response in the unintended direction; inactive = score below 0.9.
Please answer using one outcome listed in True = active, False = inactive

Solved cases (3 shown):
chem-smiles | label
CN1CCN(c2ccccc2/C=C2\SCCN(c3ccc(Cl)c(Cl)c3)C2=O)CC1 | True
NC(=O)N(O)[C@@H]1C=C[C@H](Oc2cccc(Oc3ccc(F)cc3)c2)C1 | False
CCCCCCCCCCCCCCCS(=O)(=O)Oc1ccccc1 | False

We now examine a further compound.
Please share the test call associated with `CCCOc1sc(C(=O)N2CCC(c3cc(CN)ccc3F)CC2)c(C)c1Br` .
True
